# target system: UniProt P0C1R8
# Sequence (P0C1R8 whole entry): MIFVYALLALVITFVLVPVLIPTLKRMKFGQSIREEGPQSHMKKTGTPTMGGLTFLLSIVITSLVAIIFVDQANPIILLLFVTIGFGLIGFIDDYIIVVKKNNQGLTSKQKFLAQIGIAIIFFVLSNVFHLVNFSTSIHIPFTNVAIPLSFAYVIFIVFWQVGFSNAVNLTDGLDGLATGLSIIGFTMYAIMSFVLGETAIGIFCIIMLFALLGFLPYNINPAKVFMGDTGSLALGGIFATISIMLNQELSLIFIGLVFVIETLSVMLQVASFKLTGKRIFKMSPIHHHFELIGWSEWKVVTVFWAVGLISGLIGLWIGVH
readout kind: log10 IC50 (log10 of the value in µM)

• CCCCCCCCCCCCCCCC(=O)O[C@H]1CN(CCCCCn2ccc(=O)[nH]c2=O)[C@@H](CO[C@@H]2O[C@H](CN)[C@@H](O)[C@H]2O)C(=O)N[C@@H]1CO[Si](c1ccccc1)(c1ccccc1)C(C)(C)C = 2.08
• CCCCCCCCCCCCCCCC(=O)O[C@H]1CN(CCCCCn2ccc(=O)[nH]c2=O)[C@@H](CO)C(=O)N[C@@H]1CO = 2.43
• CCCCCCCCCCCCCCCC(=O)O[C@H]1CN(CCCCCn2ccc(=O)[nH]c2=O)[C@@H](CO[C@@H]2O[C@H](CN=[N+]=[N-])[C@H]3OC(CC)(CC)O[C@@H]23)C(=O)N[C@@H]1CO[C@@H]1O[C@H](CN=[N+]=[N-])[C@H]2OC(CC)(CC)O[C@@H]12 = 2.62
• CC(C)(C)[Si](OC[C@H]1NC(=O)[C@H](COCc2ccccc2)N(CCCCCn2ccc(=O)[nH]c2=O)C[C@@H]1O)(c1ccccc1)c1ccccc1 = 3.20
• CCCCCCCCCCCCCCCC(=O)O[C@H]1CN(CCCCCn2ccc(=O)[nH]c2=O)[C@@H](CO)C(=O)N[C@@H]1CO[Si](c1ccccc1)(c1ccccc1)C(C)(C)C = 2.58
